- System: Enterococcus faecalis
- protocolDetails: Antibacterial activity against Enterococcus faecalis ATCC 49452
- Format: functional
As shown below, each of these compounds has a reported MIC value.
Just the number in µg/mL, nothing appended.

Would you please look over these solved cases?
{"compound": "CCCCCCCCCC(=O)N[C@@H](Cc1c[nH]c2ccccc12)C(=O)N[C@H](CC(N)=O)C(=O)N[C@@H](CC(=O)O)C(=O)N[C@@H]1C(=O)NCC(=O)N[C@@H](CCCNC(=O)c2ccccc2OC)C(=O)N[C@@H](CC(=O)O)C(=O)N[C@H](C)C(=O)N[C@@H](CC(=O)O)C(=O)NCC(=O)N[C@H](CO)C(=O)N[C@@H]([C@H](C)CC(=O)O)C(=O)N[C@@H](CC(=O)c2ccccc2N)C(=O)O[C@@H]1C", "measuredMetric": "MIC", "assayValue": 25}
{"compound": "CCCCCCCCCC(=O)N[C@@H](Cc1c[nH]c2ccccc12)C(=O)N[C@H](CC(N)=O)C(=O)N[C@@H](CC(=O)O)C(=O)N[C@@H]1C(=O)NCC(=O)N[C@@H](CCCNC(=O)CCc2c[nH]c3ccccc23)C(=O)N[C@@H](CC(=O)O)C(=O)N[C@H](C)C(=O)N[C@@H](CC(=O)O)C(=O)NCC(=O)N[C@H](CO)C(=O)N[C@@H]([C@H](C)CC(=O)O)C(=O)N[C@@H](CC(=O)c2ccccc2N)C(=O)O[C@@H]1C", "measuredMetric": "MIC", "assayValue": 25}
{"compound": "CCCCCCCCCC(=O)N[C@@H](Cc1c[nH]c2ccccc12)C(=O)N[C@H](CC(N)=O)C(=O)N[C@@H](CC(=O)O)C(=O)N[C@@H]1C(=O)NCC(=O)N[C@@H](CCCNC(=O)C(C)CC(=O)c2ccccc2N)C(=O)N[C@@H](CC(=O)O)C(=O)N[C@H](C)C(=O)N[C@@H](CC(=O)O)C(=O)NCC(=O)N[C@H](CO)C(=O)N[C@@H]([C@H](C)CC(=O)O)C(=O)N[C@@H](CC(=O)c2ccccc2N)C(=O)O[C@@H]1C (stereo not given in full)", "measuredMetric": "MIC", "assayValue": 12.5}

[ask] Give recorded MIC with Enterococcus faecalis for the following compound: CCCCCCCCCC(=O)N[C@@H](Cc1c[nH]c2ccccc12)C(=O)N[C@H](CC(N)=O)C(=O)N[C@@H](CC(=O)O)C(=O)N[C@@H]1C(=O)NCC(=O)N[C@@H](CCCNC(=O)c2c(N)ccc3ccccc23)C(=O)N[C@@H](CC(=O)O)C(=O)N[C@H](C)C(=O)N[C@@H](CC(=O)O)C(=O)NCC(=O)N[C@H](CO)C(=O)N[C@@H]([C@H](C)CC(=O)O)C(=O)N[C@@H](CC(=O)c2ccccc2N)C(=O)O[C@@H]1C
[reply] 6.25

[ask] Give recorded MIC with Enterococcus faecalis for the following compound: CCCCCCCCCC(=O)N[C@@H](Cc1c[nH]c2ccccc12)C(=O)N[C@H](CC(N)=O)C(=O)N[C@@H](CC(=O)O)C(=O)N[C@@H]1C(=O)NCC(=O)N[C@@H](CCCNC(=O)c2cccc(C)c2N)C(=O)N[C@@H](CC(=O)O)C(=O)N[C@H](C)C(=O)N[C@@H](CC(=O)O)C(=O)NCC(=O)N[C@H](CO)C(=O)N[C@@H]([C@H](C)CC(=O)O)C(=O)N[C@@H](CC(=O)c2ccccc2N)C(=O)O[C@@H]1C
[reply] 10

All values here come from ChEMBL document CHEMBL1136454.
